measuredOn: Beta-lactamase VIM-1 (Bacteria, UniProt Q8GDC1)
protocolText: Binding affinity to VIM-1 (unknown origin) expressed in Escherichia coli BL21(DE3) assessed as inhibition constant by measuring rate of substrate hydrolysis by UV-Vis spectrophotometric analysis
observable: pKi
Note on units: pKi is unitless, being -log10 of a concentration expressed in mol/L.

// query Report pKi, nothing else, for this compound: COc1ccc(O)c(-c2n[nH]c(=S)n2[C@@H]2C[C@H]2c2ccccc2)c1
// result 5.66

// query Report pKi, nothing else, for this compound: S=c1[nH]nc(-c2ccccc2)n1[C@@H]1C[C@H]1c1ccccc1
// result 5.51

// query Report pKi, nothing else, for this compound: S=c1[nH]nc(-c2ccccc2)n1CCCCc1ccccc1
// result 5.92

// query Report pKi, nothing else, for this compound: Oc1ccc(CCn2c(-c3ccccc3-c3ccccc3)n[nH]c2=S)c(O)c1
// result 4.57

// query Report pKi, nothing else, for this compound: COc1ccc(O)c(-c2n[nH]c(=S)n2CCc2ccc(OCc3ccccc3)cc2)c1
// result 4.95

// query Report pKi, nothing else, for this compound: Oc1cccc(CCn2c(-c3cccc(-c4ccccc4)c3)n[nH]c2=S)c1O
// result 6.15

// query Report pKi, nothing else, for this compound: COc1ccc(O)c(-c2n[nH]c(=S)n2CC2OC(=O)c3ccccc32)c1 (stereo not given)
// result 5.92

// query Report pKi, nothing else, for this compound: O=C1OC(Cn2c(-c3ccc4ccccc4c3)n[nH]c2=S)c2ccccc21 (stereo not given)
// result 5.20

// query Report pKi, nothing else, for this compound: Oc1ccc(CCn2c(-c3cccc(-c4ccccc4)c3)n[nH]c2=S)c(O)c1
// result 6.39

// query Report pKi, nothing else, for this compound: Cc1ccccc1-c1n[nH]c(=S)n1CCc1ccccc1
// result 5.48

// query Report pKi, nothing else, for this compound: S=c1[nH]nc(-c2ccccc2)n1CCc1ccccc1
// result 5.49

// query Report pKi, nothing else, for this compound: S=c1[nH]nc(Cc2ccccc2)n1Cc1ccccc1
// result 4.64

// query Report pKi, nothing else, for this compound: Oc1ccc(CCn2c(-c3ccccc3)n[nH]c2=S)c(O)c1
// result 5.29

// query Report pKi, nothing else, for this compound: S=c1[nH]nc(-c2ccccc2)n1CCCc1ccccc1
// result 6.25

// query Report pKi, nothing else, for this compound: Oc1ccc(CCn2c(-c3ccc4ccccc4c3)n[nH]c2=S)cc1
// result 5.48

// query Report pKi, nothing else, for this compound: Cn1cccc1-c1n[nH]c(=S)n1CC1OC(=O)c2ccccc21 (stereo not given)
// result 5.66

###

Quick list: inhibition per entry.
System: metallo-β-lactamase VIM-2 (Pseudomonas aeruginosa)
protocolText: Inhibition of VIM-2 (unknown origin) expressed in Escherichia coli BL21(DE3) assessed as substrate hydrolysis at 200 uM by UV-Vis spectrophotometric analysis relative to control

molecule=COc1ccc(O)c(-c2n[nH]c(=S)n2CCc2ccc(OCc3ccccc3)cc2)c1 measuredon="metallo-β-lactamase VIM-2 (Pseudomonas aeruginosa)" observable=inhibition measvalue="< 50%"
molecule=S=c1[nH]nc(-c2ccc3ccccc3c2)n1CCc1ccccc1 measuredon="metallo-β-lactamase VIM-2 (Pseudomonas aeruginosa)" observable=inhibition measvalue="< 50%"

// query Jot down inhibition (metallo-β-lactamase VIM-2 (Pseudomonas aeruginosa)) of S=c1[nH]nc(-c2ccccc2)n1CCc1c[nH]c2ccccc12 .
// result 50%

// query Jot down inhibition (metallo-β-lactamase VIM-2 (Pseudomonas aeruginosa)) of O=C1OC(Cn2c(-c3cccc(-c4ccccc4)c3)n[nH]c2=S)c2ccccc21 (stereo not given) .
// result < 50%

// query Jot down inhibition (metallo-β-lactamase VIM-2 (Pseudomonas aeruginosa)) of S=c1[nH]nc(-c2ccc3ccccc3c2)n1[C@@H]1C[C@H]1c1ccccc1 .
// result < 50%

###

System: metallo-β-lactamase IMP-1 (Pseudomonas aeruginosa)
protocolText: Inhibition of IMP1 (unknown origin) expressed in Escherichia coli BL21(DE3) assessed as substrate hydrolysis at 100 uM by UV-Vis spectrophotometric analysis relative to control
observable: inhibition

The following compounds have reported results that may help.
compound=COc1ccc(O)c(-c2n[nH]c(=S)n2CCc2ccc(O)cc2)c1 measvalue="< 30%"
compound=S=c1[nH]nc(-c2ccccc2)n1CCc1ccccc1 measvalue="< 30%"

// query Report inhibition, nothing else, for this compound: O=C1OC(Cn2c(-c3ccccc3)n[nH]c2=S)c2ccccc21 (stereo not drawn)
// result < 30%

// query Report inhibition, nothing else, for this compound: O=C(O)c1cccc(Cn2c(-c3ccccc3)n[nH]c2=S)c1
// result < 30%

// query Report inhibition, nothing else, for this compound: S=c1[nH]nc(-c2ccccc2)n1CCCCc1ccccc1
// result < 30%

// query Report inhibition, nothing else, for this compound: Cc1ccccc1CCn1c(-c2ccccc2)n[nH]c1=S
// result < 30%

// query Report inhibition, nothing else, for this compound: Oc1ccc(CCn2c(-c3cc(-c4ccccc4)ccc3O)n[nH]c2=S)c(O)c1
// result 44%

// query Report inhibition, nothing else, for this compound: FC(F)(F)c1ccc(CCn2c(-c3ccccc3)n[nH]c2=S)cc1
// result < 30%

###

protocolText: Binding affinity to VIM-4 (unknown origin) expressed in Escherichia coli BL21(DE3) assessed as inhibition constant by measuring rate of substrate hydrolysis by UV-Vis spectrophotometric analysis
observable: pKi
Note on units: pKi is unitless, being -log10 of a concentration expressed in mol/L.

molecule=COc1ccc(O)c(-c2n[nH]c(=S)n2Cc2ccccc2)c1 measvalue=5.74
molecule=Cc1ccccc1-c1n[nH]c(=S)n1CCc1ccccc1 measvalue=5.62
molecule=S=c1[nH]nc(-c2ccccc2)n1CCCCc1ccccc1 measvalue=6.37
molecule="O=C1OC(Cn2c(-c3ccc4ccccc4c3)n[nH]c2=S)c2ccccc21 (configuration not stated)" measvalue=5.09
molecule=COc1ccc(O)c(-c2n[nH]c(=S)n2CCc2ccccc2)c1 measvalue=5.82

// query Report pKi, nothing else, for this molecule: Oc1ccc(CCn2c(-c3cc(-c4ccccc4)ccc3O)n[nH]c2=S)c(O)c1
// result 6.07

// query Report pKi, nothing else, for this molecule: COc1ccc(O)c(-c2n[nH]c(=S)n2CCc2ccc(O)cc2)c1
// result 5.72

// query Report pKi, nothing else, for this molecule: Cn1cccc1-c1n[nH]c(=S)n1CC1OC(=O)c2ccccc21 (configuration not stated)
// result 5.60

// query Report pKi, nothing else, for this molecule: COc1ccc(O)c(-c2n[nH]c(=S)n2CCc2ccc(OCc3ccccc3)cc2)c1
// result 6.27

// query Report pKi, nothing else, for this molecule: Sc1nnc(-c2ccccc2)n1Cc1ccccc1
// result 5.82

// query Report pKi, nothing else, for this molecule: S=c1[nH]nc(-c2cc(Cl)cc(Cl)c2)n1/N=C/c1ccc(OCc2ccccc2)cc1
// result 6.22

// query Report pKi, nothing else, for this molecule: Cc1ccccc1-c1n[nH]c(=S)n1CCc1ccc(O)cc1
// result 5.80

###

measuredOn: Beta-lactamase VIM-1 (Bacteria, UniProt Q8GDC1)
protocolText: Binding affinity to VIM-1 (unknown origin) expressed in Escherichia coli BL21(DE3) assessed as inhibition constant by measuring rate of substrate hydrolysis by UV-Vis spectrophotometric analysis
observable: Ki
# number then unit; no other words

The following compounds have reported results that may help.
linenotation=COc1ccc(O)c(-c2n[nH]c(=S)n2Cc2ccccc2)c1 observable=Ki measvalue="590 nM"
linenotation=Oc1ccc(CCn2c(-c3cc(-c4ccccc4)ccc3O)n[nH]c2=S)c(O)c1 observable=Ki measvalue="760 nM"
linenotation=COc1ccc(O)c(-c2n[nH]c(=S)n2CCc2ccccc2)c1 observable=Ki measvalue="1900 nM"

Lab note: next compound to report on.
// query Report Ki, nothing else, for this compound: O=C(O)c1ccc(Cn2c(-c3ccccc3)n[nH]c2=S)cc1
// result 3600 nM

###

Test system: metallo-β-lactamase IMP-1 (Pseudomonas aeruginosa)
protocolText: Inhibition of IMP1 (unknown origin) expressed in Escherichia coli BL21(DE3) assessed as substrate hydrolysis at 100 uM by UV-Vis spectrophotometric analysis relative to control
observable: inhibition (%)
Give just the numeric value; % need not be written.

molecule="COc1ccc(O)c(-c2n[nH]c(=S)n2CC2OC(=O)c3ccccc32)c1 (stereo not given)" measvalue=47

Lab note: next molecule to report on.
// query Report inhibition, nothing else, for this molecule: Cn1cccc1-c1n[nH]c(=S)n1CC1OC(=O)c2ccccc21 (stereo not given)
// result 30

###

Quick list: inhibition per entry.
System: metallo-β-lactamase IMP-1 (Pseudomonas aeruginosa)
protocolText: Inhibition of IMP1 (unknown origin) expressed in Escherichia coli BL21(DE3) assessed as substrate hydrolysis at 100 uM by UV-Vis spectrophotometric analysis relative to control

The following compounds have reported results that may help.
linenotation=O=C(O)c1ccccc1CCn1c(-c2cccc(-c3ccccc3)c2)n[nH]c1=S measuredon="metallo-β-lactamase IMP-1 (Pseudomonas aeruginosa)" measvalue="< 30%"
linenotation=O=C(O)c1ccc(Cn2c(-c3ccccc3)n[nH]c2=S)cc1 measuredon="metallo-β-lactamase IMP-1 (Pseudomonas aeruginosa)" measvalue="< 30%"

// query Report inhibition, nothing else, for this compound: S=c1[nH]nc(-c2ccc3ccccc3c2)n1[C@@H]1C[C@H]1c1ccccc1
// result < 30%

Every entry's value here was drawn from ChEMBL document CHEMBL5325390.
